Test system: A549/ATCC NSCLC
Assay: NCI-60 one-dose screen, 48 h (100 = growth as untreated, 0 = no growth, -100 = all killed)
Details: 10 µM unless noted
Compounds without any hit were thinned out: in the full panel of roughly 83,000, 20% have a hit.
Listed below: growth values for each entry.

Molecule | growth (%)
COc1ccc(C2C=C(c3ccc(Cl)cc3)N=C3SC=CN32)cc1 (stereo not given) | 104
O=C(c1ccccc1)N(CCCCl)C(=O)N(CCCCl)C(=O)c1ccccc1 | 87.7
COc1cc2c(cc1OCCCOc1cc3c(cc1OC)C(=O)N1CCC[C@H]1C=N3)C=CC(C)(C)O2 | 99.3
CCOC(=O)C1=C(C)NC(SCc2nnc(-c3ccc(Cl)cc3)o2)=NC1c1ccc(Cl)cc1 (stereo not given) | 69
O=C1OCC2=C1C(c1ccc(Cl)c(Cl)c1)c1cc3c(cc1N2CCO)CCC3 (stereo not given) | 21.6
